- measured_target: NLRP3 inflammasome (Homo sapiens, UniProt Q96P20)
- Sequence (Q96P20 whole entry): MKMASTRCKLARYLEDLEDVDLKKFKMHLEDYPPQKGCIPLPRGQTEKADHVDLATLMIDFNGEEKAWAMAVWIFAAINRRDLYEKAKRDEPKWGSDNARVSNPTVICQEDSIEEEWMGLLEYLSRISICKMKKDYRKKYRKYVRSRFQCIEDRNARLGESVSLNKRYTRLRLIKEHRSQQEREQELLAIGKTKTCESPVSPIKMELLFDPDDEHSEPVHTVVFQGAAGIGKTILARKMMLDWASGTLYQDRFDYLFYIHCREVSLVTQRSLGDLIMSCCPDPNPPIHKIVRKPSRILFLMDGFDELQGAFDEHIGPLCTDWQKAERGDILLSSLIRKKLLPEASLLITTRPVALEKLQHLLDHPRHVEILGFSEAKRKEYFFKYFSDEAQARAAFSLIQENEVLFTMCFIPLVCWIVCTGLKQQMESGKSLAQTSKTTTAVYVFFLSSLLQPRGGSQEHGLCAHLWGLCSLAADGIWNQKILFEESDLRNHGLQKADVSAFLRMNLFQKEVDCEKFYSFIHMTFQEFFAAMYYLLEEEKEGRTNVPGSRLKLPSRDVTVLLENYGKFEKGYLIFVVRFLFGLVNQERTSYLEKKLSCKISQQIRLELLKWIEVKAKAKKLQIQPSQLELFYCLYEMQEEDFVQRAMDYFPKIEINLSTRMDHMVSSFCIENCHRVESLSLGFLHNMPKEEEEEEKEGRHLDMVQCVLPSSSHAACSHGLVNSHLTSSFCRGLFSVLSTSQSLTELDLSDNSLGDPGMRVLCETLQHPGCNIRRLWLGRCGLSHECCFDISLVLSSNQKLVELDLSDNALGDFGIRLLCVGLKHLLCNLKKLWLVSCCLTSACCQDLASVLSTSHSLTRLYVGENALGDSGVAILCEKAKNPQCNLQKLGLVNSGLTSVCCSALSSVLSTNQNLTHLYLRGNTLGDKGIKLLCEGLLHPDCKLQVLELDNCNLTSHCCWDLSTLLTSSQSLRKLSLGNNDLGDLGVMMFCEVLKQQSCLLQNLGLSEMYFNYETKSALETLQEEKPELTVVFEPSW
- protocol_description: NLRP3 inflammasome activation in THP1 macrophages (LPS priming, nigericin), IL-1β AlphaLISA
- experimental_parameters: PMA-differentiated THP1, LPS 20 ng/ml 3 hrs, compound 1 hr, Nigericin 6.7 uM 3 hrs, supernatant
quantity_kind: IC50

Worked set:
Looking up COc1cc(C(F)(F)F)cc(C)c1-c1ccc(N[C@@H]2CCCN(C)C2)nn1 , I see its IC50 listed as > 1000 nM

Looking up Cc1ccccc1-c1ccc(N[C@@H]2CCCN(C)C2)nn1 , I see its IC50 listed as > 1000 nM

Looking up Cc1cc(N[C@@H]2CCN(C)C2)nnc1-c1ccc(C(F)(F)F)cc1 , I see its IC50 listed as ≤ 10 nM

Looking up COc1cccc(-c2cc(C)c(N[C@@H]3CCCN(C)C3)nn2)c1 , I see its IC50 listed as > 1000 nM

Looking up CN1CCC[C@@H](Nc2ccc(-c3ccc(C(F)(F)F)cc3Cl)nn2)C1 , I see its IC50 listed as 100 to 500 nM

Looking up Cc1cc(N[C@H]2CN(C)CC[C@@H]2F)nnc1-c1ccc(C(F)(F)F)cc1 , I see its IC50 listed as 50 to 100 nM

For the 3 compounds below, give their IC50 values.
1. Cc1cc(-c2cccc(C(C)C)c2)nnc1N[C@@H]1CCCN(C)C1
2. Cc1cc(-c2ccc(F)c(Cl)c2)nnc1N[C@@H]1CCCN(C)C1
3. Cc1cc(N[C@@H]2C[C@H](F)CN(C)C2)nnc1-c1ccc(C(F)(F)F)cc1

> 1000 nM
100 to 500 nM
100 to 500 nM

* * *

- measured_target: NLRP3 inflammasome (Homo sapiens, UniProt Q96P20)
- protocol_description: NLRP3 inflammasome activation in THP1 macrophages (LPS priming, nigericin), IL-1β AlphaLISA
- experimental_parameters: PMA-differentiated THP1, LPS 20 ng/ml 3 hrs, compound 1 hr, Nigericin 6.7 uM 3 hrs, supernatant
quantity_kind: IC50

Worked set:
Looking up Cc1cc(N[C@@H]2CCCN(C)C2)nnc1-c1ccc(OC(F)(F)F)cc1 , I see its IC50 listed as 10 to 50 nM

Looking up CCN1CCC[C@@H](Nc2cc(C)c(-c3ccc(Cl)cc3)nn2)C1 , I see its IC50 listed as ≤ 10 nM

Looking up Cc1cc(N[C@@H]2CCCN(C)C2)nnc1-c1ccc(F)cc1C#N , I see its IC50 listed as > 1000 nM

Looking up Cc1cc(N[C@@H]2CCCN(C)C2)nnc1-c1ccc(O)c(C)c1C(F)(F)F , I see its IC50 listed as > 1000 nM

Looking up Cc1cc(-c2ccc(C3CCC3)cc2)nnc1N[C@@H]1CCCN(C)C1 , I see its IC50 listed as > 1000 nM

For the 8 compounds below, give their IC50 values.
1. CCN1CCC[C@@H](Nc2cc(C)c(-c3ccc(F)cc3)nn2)C1
2. Cc1cc(-c2ccc(C(F)(F)F)cc2)nnc1O[C@@H]1CCCN(C)C1
3. Cc1cc(-c2cccc(C(F)(F)F)c2)nnc1N[C@@H]1CCCN(C)C1
4. Cc1cc(-c2ccc(C(F)(F)F)cc2F)nnc1N[C@@H]1CCCN(C)C1
5. Cc1cc(N[C@@H]2CCCN(C3CC3)C2)nnc1-c1ccc(C(F)(F)F)cc1
6. CN1CCC[C@@H](Nc2ccc(-c3ccc(Cl)cc3Cl)nn2)C1
7. Cc1cc(-c2ccc(C(F)(F)F)c(C#N)c2)nnc1N[C@@H]1CCCN(C)C1
8. Cc1cc(N[C@@H]2CCCN(C)C2)nnc1-c1ccccc1C(F)F

["10 to 50 nM", "> 1000 nM", "> 1000 nM", "100 to 500 nM", "≤ 10 nM", "50 to 100 nM", "> 1000 nM", "500 to 1000 nM"]

For the 2 compounds below, give their IC50 values.
1. Cc1cc(N[C@H]2CCCN(C)C2)nnc1-c1ccc(C(F)(F)F)cc1
2. CCN1C[C@H](F)C[C@@H](Nc2cc(C)c(-c3ccc(Cl)cc3)nn2)C1

> 1000 nM
> 1000 nM

For the 4 compounds below, give their IC50 values.
1. Cc1cc(N[C@@H]2CCCN(C)C2)nnc1-c1ccc(C(F)(F)F)cc1F
2. Cc1cc(N[C@@H]2CCCN(CC(F)F)C2)nnc1-c1ccc(C(F)(F)F)cc1
3. Cc1cc(F)ccc1-c1ccc(N[C@@H]2CCCN(C)C2)nn1
4. Cc1cc(C(F)(F)F)ccc1-c1nnc(N[C@@H]2CCCN(C)C2)cc1C

1. 10 to 50 nM
2. 100 to 500 nM
3. 100 to 500 nM
4. 10 to 50 nM

For the 5 compounds below, give their IC50 values.
1. Cc1c(-c2ccc(N[C@@H]3CCCN(C)C3)nn2)ccc(C(F)(F)F)c1C
2. Cc1cc(-c2ccccc2C#N)nnc1N[C@@H]1CCCN(C)C1
3. Cc1cc(-c2ccccc2C(F)F)nnc1N[C@@H]1CCCN(C)C1
4. Cc1cc(-c2cc(C)c(N[C@@H]3CCCN(C)C3)nn2)ccc1Cl
5. Cc1cc(N[C@@H]2CCCN(C)C2)nnc1-c1ccc(Cl)cc1Cl

1: 100 to 500 nM; 2: > 1000 nM; 3: 500 to 1000 nM; 4: > 1000 nM; 5: ≤ 10 nM

For the 3 compounds below, give their IC50 values.
1. COc1cccc(-c2nnc(N[C@@H]3CCCN(C)C3)cc2C)c1
2. Cc1cc(-c2cccc(C#N)c2)nnc1N[C@@H]1CCCN(C)C1
3. Cc1cc(F)ccc1-c1cc(C)c(N[C@@H]2CCCN(C)C2)nn1

1. > 1000 nM
2. > 1000 nM
3. 10 to 50 nM

For the 2 compounds below, give their IC50 values.
1. Cc1cc(N[C@@H]2CCCN(C)C2)nnc1-c1ccc(Cl)c(F)c1
2. Cc1cc(-c2ccc(C(F)(F)F)cc2)nnc1N[C@@H]1CCN(C)C1

1: 50 to 100 nM; 2: 50 to 100 nM

For the 2 compounds below, give their IC50 values.
1. Cc1cc(N[C@@H]2CCCN(C)C2)nnc1-c1cccc(C#N)c1
2. Cc1cc(-c2ccc(F)cc2C#N)nnc1N[C@@H]1CCCN(C)C1

1. > 1000 nM
2. > 1000 nM

For the 5 compounds below, give their IC50 values.
1. Cc1cc(N[C@@H]2CCCN(C)C2)nnc1-c1ccc(C(F)(F)F)c(F)c1
2. Cc1cccc(-c2nnc(N[C@@H]3CCCN(C)C3)cc2C)c1
3. Cc1cc(N[C@H]2CN(C)CC(F)(F)C2)nnc1-c1ccc(C(F)(F)F)cc1
4. Cc1cc(N[C@H]2CCCN(C(C)C)C2)nnc1-c1ccc(C(F)(F)F)cc1
5. CCN1CCC[C@@H](Nc2cc(C(F)(F)F)c(-c3ccc(F)cc3)nn2)C1

["100 to 500 nM", "100 to 500 nM", "50 to 100 nM", "500 to 1000 nM", "10 to 50 nM"]

Data provenance is patent US20250074888A1.
